SYSTEM: Methionine aminopeptidase 2 (Homo sapiens)
PROTOCOL TEXT: Inhibition of human MetAP2 assessed as residual activity at 800 nM after 8 hrs by Met-AMC based fluorescence assay
METRIC: Activity (%)

[
  {
    "MOLECULE": "CO[C@@H]1[C@H](OC(=O)NN2CCOCC2)CC[C@]2(CO2)[C@H]1[C@@]1(C)O[C@@H]1CC=C(C)C",
    "SYSTEM": "Methionine aminopeptidase 2 (Homo sapiens)",
    "Activity, %": 6
  },
  {
    "MOLECULE": "CO[C@@H]1[C@H](OC(=O)N2CCC(C(=O)O)CC2)CC[C@]2(CO2)[C@H]1[C@@]1(C)O[C@@H]1CC=C(C)C",
    "SYSTEM": "Methionine aminopeptidase 2 (Homo sapiens)",
    "Activity, %": 8
  },
  {
    "MOLECULE": "CO[C@@H]1[C@H](OC(=O)NCc2ccc(C(=O)O)cc2)CC[C@]2(CO2)[C@H]1[C@@]1(C)O[C@@H]1CC=C(C)C",
    "SYSTEM": "Methionine aminopeptidase 2 (Homo sapiens)",
    "Activity, %": 3
  },
  {
    "MOLECULE": "CO[C@@H]1[C@H](OC(=O)N[C@@H](C(=O)Nc2cccc(C(=O)O)c2)C(C)C)CC[C@]2(CO2)[C@H]1[C@@]1(C)O[C@@H]1CC=C(C)C",
    "SYSTEM": "Methionine aminopeptidase 2 (Homo sapiens)",
    "Activity, %": 4
  }
]

1: CO[C@@H]1[C@H](OC(=O)N[C@@H](C(=O)NCCC2CCCN2C)C(C)C)CC[C@]2(CO2)[C@H]1[C@@]1(C)O[C@@H]1CC=C(C)C (stereo partly specified)
2: CO[C@@H]1[C@H](OC(=O)N[C@@H](C(N)=O)C(C)C)CC[C@]2(CO2)[C@H]1[C@@]1(C)O[C@@H]1CCC(C)(C)O
For 1 and 2 , which recorded Activity is lower? Which one? Tell me its label.
1

----------
Tested on: Trypanosoma brucei
PROTOCOL TEXT: Antiparasitic activity against Trypanosoma brucei 427 after 48 hrs
Assay type: functional, organism-based
EXPERIMENTAL CONDITIONS: Trypanosoma brucei, 427, 48 h; read-out: IC50
METRIC: IC50 (µg/mL)

1: CO[C@@H]1[C@H](OC(=O)N[C@@H](C(=O)NCCCN(C)C)C(C)C)CC[C@]2(CO2)[C@H]1[C@@]1(C)O[C@@H]1CC=C(C)C
2: CO[C@@H]1[C@H](OC(=O)NCc2ccc(C(=O)O)cc2)CC[C@]2(CO2)[C@H]1[C@@]1(C)O[C@@H]1CC=C(C)C
3: CO[C@@H]1[C@H](OC(=O)N[C@@H](C(=O)Nc2cccc(C(=O)O)c2)C(C)C)CC[C@]2(CO2)[C@H]1[C@@]1(C)O[C@@H]1CC=C(C)C
Order the records by IC50, with each subsequent value no larger than the one before. Reply: labels, ordered per the request.
2, 1, 3
(2: 42 µg/mL, 1: 25 µg/mL, 3: 14 µg/mL)

----------
System: Trypanosoma brucei
PROTOCOL TEXT: Antiparasitic activity against Trypanosoma brucei 427 after 48 hrs
Type: functional, organism-based
EXPERIMENTAL CONDITIONS: Trypanosoma brucei, 427, 48 h; read-out: IC50
METRIC: IC50 (µg/mL)

Recorded results for 3 compounds are shown here.
[
  {
    "COMPOUND": "CO[C@@H]1[C@H](OC(=O)NN2CCOCC2)CC[C@]2(CO2)[C@H]1[C@@]1(C)O[C@@H]1CC=C(C)C",
    "IC50 (µg/mL)": 28
  },
  {
    "COMPOUND": "CO[C@@H]1[C@H](OC(=O)/C=C/C=C/C=C/C=C/C(=O)O)CC[C@]2(CO2)[C@H]1[C@@]1(C)O[C@@H]1CC=C(C)C",
    "IC50 (µg/mL)": 26
  },
  {
    "COMPOUND": "CO[C@@H]1[C@H](OC(=O)NC(=O)CCl)CC[C@]2(CO2)[C@H]1[C@@]1(C)O[C@@H]1CC=C(C)C",
    "IC50 (µg/mL)": 2.8
  }
]

1: CO[C@@H]1[C@H](OC(=O)N[C@@H](C(=O)NCCC2CCCN2C)C(C)C)CC[C@]2(CO2)[C@H]1[C@@]1(C)O[C@@H]1CC=C(C)C (stereo not given in full)
2: CO[C@@H]1[C@H](OC(=O)N[C@@H](C(=O)NN2CCCCC2)C(C)C)CC[C@]2(CO2)[C@H]1[C@@]1(C)O[C@@H]1CC=C(C)C
For 1 and 2 , which recorded IC50 is lower? Which one? Tell me its label.
1
